test: log P determination by HPLC on reverse-phase column (EEC Directive 79/831 Annex V.A8)
Assay type: physicochemical
experimental.setup: HPLC on reverse-phase column
Please use MET whenever logP is not below 3, and NOT MET whenever it is.

compound="Cc1cc(Cl)cc(C(=O)NCC#N)c1NC(=O)c1cc(Cn2nc(C(F)(F)F)nc2C(F)(F)F)nn1-c1ncccc1Cl [I-1-49]" assigned_label=MET
compound="Cc1cccc(C(=O)NC(C)C[S+](C)[O-])c1NC(=O)c1cc(Cn2nc(C(F)(F)F)nc2C(F)(F)F)nn1-c1ncccc1Cl (stereo not drawn)" assigned_label="NOT MET"
compound=Cc1cc(Br)cc(C(=O)N[C@@H](C)CS(C)(=O)=O)c1NC(=O)c1cc(Cn2nc(C(F)(F)F)nc2C(F)(F)F)nn1-c1ncccc1Cl assigned_label=MET
compound=Cc1cc(Cl)cc(C(=O)NC(C)C)c1NC(=O)c1cc(Cn2nc(C(F)(F)F)cc2C(F)(F)F)nn1-c1ccccc1Cl assigned_label=MET

Here is the next item to consider.
(Q) logP >= 3 for Cc1cc(Cl)cc(C(=O)NC(C)(C)C[S+](C)[O-])c1NC(=O)c1cc(Cn2cc(Br)c(C(F)(F)F)n2)nn1-c1ncccc1Cl (stereo not drawn) [I-1-136] ?
(A) MET

###

Kindly supply the reported logP values for the records listed here.
test: log P determination by HPLC on reverse-phase column (EEC Directive 79/831 Annex V.A8)
Assay type: physicochemical
Give bare numbers.

Recorded results for 3 molecules are shown here.
molecule=Cc1cc(Cl)cc(C(=O)NC(C)C)c1NC(=O)c1cc(Cn2nnc(-c3ccc(Br)cc3)n2)nn1-c1ncccc1Cl number=4.20
molecule=Cc1cc(C#N)cc(C(=O)NCC#N)c1NC(=O)c1cc(Cn2cc(Cl)c(C(F)(F)C(F)(F)F)n2)nn1-c1ncccc1Cl number=3.40
molecule=Cc1cc(C#N)cc(C(N)=O)c1NC(=O)c1cc(Cn2cc(Cl)c(C(F)(F)C(F)(F)F)n2)nn1-c1ncccc1Cl number=3.20

Parameter requested: logP. Apply to each item below.
1. CC(C)NC(=O)c1cc(Cl)cc(Cl)c1NC(=O)c1cc(Cc2cncnc2)nn1-c1ncccc1Cl
2. Cc1cc(Cl)cc(C(=O)NC(C)C)c1NC(=O)c1cc(Cn2nnc(-c3cc(Cl)nc(Cl)c3)n2)nn1-c1ncccc1Cl
3. CNC(=O)c1cc(Cl)cc(C)c1NC(=O)c1cc(Cn2cnc(C(F)(F)C(F)(F)F)n2)nn1-c1ncccc1Cl [I-1-347]
4. Cc1cc(I)cc(C(=O)NC2CCCCC2)c1NC(=O)c1cc(Cn2nc(C(F)(F)F)nc2C(F)(F)F)nn1-c1ncccc1Cl
5. NC(=O)c1cc(Cl)cc(Cl)c1NC(=O)c1cc(Cn2nc(C(F)(F)F)nc2C(F)(F)F)nn1-c1ncccc1Cl

(A)
1: 1.62; 2: 4.17; 3: 2.19; 4: 4.54; 5: 2.61

Report logP for every entry below.
1. Cc1cc(C#N)cc(C(=O)NC2C3CCCCC32)c1NC(=O)c1cc(Cn2cc(Cl)c(C(F)(F)C(F)(F)F)n2)nn1-c1ncccc1Cl (centres unmarked)
2. NC(=O)c1cc(Cl)cc(Cl)c1NC(=O)c1cc(Cn2nc(C(F)(F)F)cc2C(F)(F)F)nn1-c1ncccc1Cl
3. CSCC(C)NC(=O)c1cc(Cl)cc(C)c1NC(=O)c1cc(Cn2cc(Cl)c(C(F)(F)C(F)(F)F)n2)nn1-c1ncccc1Cl (centres unmarked)
4. Cc1cc(I)cc(C(N)=O)c1NC(=O)c1cc(Cn2nc(C(F)(F)F)cc2C(F)(F)F)nn1-c1ncccc1Cl
5. Cc1cc(I)cc(C(=O)NC(C)C)c1NC(=O)c1cc(Cn2cc(C(F)(F)C(F)(F)F)c(C(F)(F)C(F)(F)F)n2)nn1-c1ncccc1Cl
6. Cc1cc(C#N)cc(C(=O)NCC#N)c1NC(=O)c1cc(Cn2cc(C(F)(F)C(F)(F)F)c(C(F)(F)C(F)(F)F)n2)nn1-c1ncccc1Cl

(A)
1. 4.50
2. 2.80
3. 4.41
4. 3.56
5. 4.96
6. 4.04

###

test: log P determination by HPLC on reverse-phase column (EEC Directive 79/831 Annex V.A8)
Type: physicochemical
experimental.setup: HPLC on reverse-phase column
result.type: logP
One number for each entry.

State recorded logP for all listed molecules.
1. CNC(=O)c1cc(Cl)cc(C)c1NC(=O)c1cc(Cn2nc(C(F)(F)C(F)(F)F)cc2C(F)(F)C(F)(F)F)nn1-c1ncccc1Cl [I-1-27]
2. Cc1cc(Br)cc(C(=O)NC(C)C)c1NC(=O)c1cc(Cn2nc(C(F)(F)C(F)(F)F)nc2C(F)(F)C(F)(F)F)nn1-c1ncccc1Cl [I-1-37]
3. Cc1cc(Br)cc(C(=O)NC2CC2)c1NC(=O)c1cc(Cn2nc(C(F)(F)F)nc2C(F)(F)F)nn1-c1ncccc1Cl [I-1-57]

(A)
4.45
4.73
3.67

###

test: log P determination by HPLC on reverse-phase column (EEC Directive 79/831 Annex V.A8)
Format: physicochemical
Exercise: for every item that follows, state its recorded logP.
Give bare numbers.

Known results for molecules:
molecule=Cc1cc(C#N)cc(C(=O)NC2CC2)c1NC(=O)c1cc(Cn2nc(C(F)(F)F)nc2C(F)(F)F)nn1-c1ncccc1Cl number=3.31
molecule="O=C(NC1CC1)c1cc(Cl)cc(Cl)c1NC(=O)c1cc(Cn2cnc(C(F)(F)C(F)(F)F)n2)nn1-c1ncccc1Cl [I-1-344]" number=2.37
molecule="Cc1cc(C#N)cc(C(=O)NC(C)C[S+](C)[O-])c1NC(=O)c1cc(Cn2cc(Cl)c(C(F)(F)C(F)(F)F)n2)nn1-c1ncccc1Cl (centres unmarked)" number=3.02

Here are 7 molecules. What values of logP were reported for them?
1. Cc1cc(I)cc(C(=O)NC2CC2)c1NC(=O)c1cc(Cn2cc(Cl)c(C(F)(F)C(F)(F)F)n2)nn1-c1ncccc1Cl
2. Cc1cc(I)cc(C(=O)NC2CC2)c1NC(=O)c1cc(Cn2nc(C(F)(F)F)nc2C(F)(F)F)nn1-c1ncccc1Cl
3. CNC(=O)c1cc(F)cc(C)c1NC(=O)c1cc(Cn2nc(C(F)(F)F)cc2C(F)(F)F)nn1-c1ncccc1Cl
4. CNC(=O)c1cc(I)cc(C)c1NC(=O)c1cc(Cn2nc(C(F)(F)F)nc2C(F)(F)F)nn1-c1ncccc1Cl
5. CSC[C@H](C)NC(=O)c1cc(Cl)cc(C)c1NC(=O)c1cc(Cn2nnc(-c3ccc(Br)cc3)n2)nn1-c1ncccc1Cl
6. Cc1cc(I)cc(C(=O)NCC#N)c1NC(=O)c1cc(Cn2ccc(C(F)(F)F)n2)nn1-c1ncccc1Cl
7. CSCC(C)NC(=O)c1cc(F)cc(C)c1NC(=O)c1cc(Cn2cc(Cl)c(C(F)(F)C(F)(F)F)n2)nn1-c1ncccc1Cl (centres unmarked)

(A)
[4.15, 3.81, 3.32, 3.60, 4.41, 3.04, 4.13]

Please state logP for every molecule in the list that follows.
1. Cc1cc(C#N)cc(C(N)=O)c1NC(=O)c1cc(Cn2ccc(C(F)(F)F)n2)nn1-c1ncccc1Cl
2. Cc1cc(C#N)cc(C(=O)NCC#N)c1NC(=O)c1cc(Cn2nc(C(F)(F)F)nc2C(F)(F)F)nn1-c1ncccc1Cl
3. Cc1cc(Cl)cc(C(=O)NC2CC2)c1NC(=O)c1cc(Cn2cnc(C(F)(F)C(F)(F)F)n2)nn1-c1ncccc1Cl [I-1-345]
4. CNC(=O)c1cc(F)cc(C)c1NC(=O)c1cc(Cn2cc(Cl)c(C(F)(F)C(F)(F)F)n2)nn1-c1ncccc1Cl

(A)
2.42
3.11
2.42
3.47

###

test: log P determination by HPLC on reverse-phase column (EEC Directive 79/831 Annex V.A8)
Assay type: physicochemical
What logP was measured for each of the following?

Worked set:
molecule="CNC(=O)c1cc(Cl)cc(C)c1NC(=O)c1cc(Cn2cnc(C(F)(F)C(F)(F)F)n2)nn1-c1ncccc1Cl [I-1-329]" result=2.57
molecule=CNC(=O)c1cc(C#N)cc(C)c1NC(=O)c1cc(Cn2cc(Cl)c(C(F)(F)C(F)(F)F)n2)nn1-c1ncccc1Cl result=3.44
molecule="Cc1cc(Cl)cc(C(=O)NC2CCCC2N)c1NC(=O)c1cc(Cn2cc(Cl)c(C(F)(F)C(F)(F)F)n2)nn1-c1ncccc1Cl (stereo not shown)" result=2.30

Please turn your attention to the following entry.
(Q) Which logP is reported for this molecule? CNC(=O)c1cc(Cl)cc(Cl)c1NC(=O)c1cc(Cn2cnc(C(F)(F)C(F)(F)F)n2)nn1-c1ncccc1Cl [I-1-342]
(A) 2.15

###

Provide the reported logP of each item.
test: log P determination by HPLC on reverse-phase column (EEC Directive 79/831 Annex V.A8)
Assay type: physicochemical
experimental.setup: HPLC on reverse-phase column
Answers are plain numbers.

Observe how each entry below is paired with its result.
compound="CSCC(C)(C)NC(=O)c1cc(Br)cc(C)c1NC(=O)c1cc(Cn2cc(Br)c(C(F)(F)F)n2)nn1-c1ncccc1Cl [I-1-98]" number=4.47
compound="Cc1cc(Cl)cc(C(=O)NC(C)C)c1NC(=O)c1cc(Cn2nnn(C)c2=O)nn1-c1ncccc1Cl [I-1-115]" number=2.31
compound="CNC(=O)c1cc(Cl)cc(C)c1NC(=O)c1cc(Cn2ccc(C(F)(F)C(F)(F)F)n2)nn1-c1ncccc1Cl [I-1-19]" number=3.29
compound="CNC(=O)c1cc(Cl)cc(C)c1NC(=O)c1cc(Cn2nnn(-c3cc(C(F)(F)F)cc(C(F)(F)F)c3)c2=O)nn1-c1ncccc1Cl [I-1-90]" number=4.08
compound="Cc1cc(Cl)cc(C(N)=O)c1NC(=O)c1cc(Cn2cc(C(F)(F)C(F)(F)F)c(C(F)(F)C(F)(F)F)n2)nn1-c1ncccc1Cl [I-1-48]" number=4.15
compound="Cc1cc(Cl)cc(C(=O)NC(C)C)c1NC(=O)c1cc(Cn2cc(Cl)c(C(F)(F)C(F)(F)F)n2)nn1-c1ncccc1Cl [I-1-31]" number=4.21

Return reported logP values for all items listed beneath this line.
1. Cc1cc(Br)cc(C(=O)NC2CC2)c1NC(=O)c1cc(Cn2nc(C(F)(F)F)cc2C(F)(F)F)nn1-c1ncccc1Cl [I-1-60]
2. Cc1cc(Cl)cc(C(=O)N[C@@H](C)CS(C)(=O)=O)c1NC(=O)c1cc(Cn2nc(C(F)(F)F)nc2C(F)(F)F)nn1-c1ncccc1Cl [I-1-129]
3. CNC(=O)c1cc(Cl)cc(C)c1NC(=O)c1cc(Cn2nnn(-c3ccc(Cl)cc3)c2=O)nn1-c1ncccc1Cl [I-1-38]
4. Cc1cc(Cl)cc(C(=O)NC(C)(C)C[S+](C)[O-])c1NC(=O)c1cc(Cn2nc(C(F)(F)F)nc2C(F)(F)F)nn1-c1ncccc1Cl (centres unmarked) [I-1-137]
5. CNC(=O)c1cc(Cl)cc(C)c1NC(=O)c1cc(Cn2nc(C(F)(F)F)n(C3CC3)c2=O)nn1-c1ncccc1Cl [I-1-127]
6. CNC(=O)c1cc(Cl)cc(C)c1NC(=O)c1cc(Cn2nc(C(F)(F)F)cc2C(F)(F)F)nn1-c1ccccc1Cl [I-1-11]
7. CNC(=O)c1cc(Cl)cc(C)c1NC(=O)c1cc(Cn2cc(I)c(C(F)(F)F)n2)nn1-c1ncccc1Cl [I-1-62]

(A)
1. 3.91
2. 3.27
3. 3.28
4. 3.22
5. 2.74
6. 4.12
7. 3.41

(Q) Using the record for Cc1cc(Cl)cc(C(=O)NC(C)C)c1NC(=O)c1cc(Cn2ccc(C(F)(F)F)n2)nn1-c1ncccc1Cl [I-1-6] , report its logP.
(A) 3.27
